System: HS 578T breast
Assay: NCI-60 one-dose screen, 48 h (100 = growth as untreated, 0 = no growth, -100 = all killed)
Details: 10 µM unless noted
The panel holds about 83,000 compounds, 20% with a hit somewhere; the sample as a whole holds those more often.
assay readout: growth (%)

- molecule: "C[C@]12CC[C@@H]3c4ccc(O)cc4CC[C@H]3[C@@H]1CC[C@@H]2NS(=O)(=O)c1cccc(Br)c1"
  assayed target: "HS 578T breast"
  quantity unit: "%"
  value: 73.8
- molecule: "O=C1CCCN1C1CCN(Cc2cc3ccccc3[nH]c2=O)c2ccccc21 (stereo not given)"
  assayed target: "HS 578T breast"
  quantity unit: "%"
  value: 98
- molecule: "CC(C)[C@H]1CC[C@H]2[C@@H](CC[C@H]3[C@](C)(CN)CCC[C@]23C)C1"
  assayed target: "HS 578T breast"
  quantity unit: "%"
  value: 94.6
- molecule: "CC1=CC(=O)C(C(C)=Nc2ccccc2Cl)C(=O)O1 (stereo not given)"
  assayed target: "HS 578T breast"
  quantity unit: "%"
  value: 83.6
- molecule: "COc1ccc(-c2nnc(COc3ccc(NC(=O)Nc4cc(C(F)(F)F)cc(C(F)(F)F)c4)cc3F)o2)cc1"
  assayed target: "HS 578T breast"
  quantity unit: "%"
  value: 16.8

Reference source: PubChem BioAssay (NCI)
